Method Notes: EBV LMP1-driven NF-kappaB luciferase reporter inhibitors, primary screen, cell-based, luminescence, single point (AID 504558);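 note: 0% = neutral control wells and 100% = reference inhibitor control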
Settings: LMP1-induced NF-kappaB luciferase reporter cells, at 12.5 µM
Out of some 350,000 compounds screened, about 2,400 (0.69%) were called active. Cut-off read from the data, not from the text of the source: active = inhibition above about 41%; inconclusive = no clear call, values can overlap the other calls; inactive = below that. Many of the other results were omitted from the sample, so actives are more common in it than they were.
Classes to choose from: active, inactive

Example cases with answers are listed next.
# Molecule, Category
records = [
    ("C[C@@H]1CN([C@@H](C)CO)C(=O)c2c(c3ccccc3n2C)-c2ccccc2CO[C@H]1CN(C)C(=O)C1CC1", "inactive"),
    ("C[C@@H]1CN([C@H](C)CO)C(=O)c2cc(Br)cnc2O[C@@H]1CN(C)Cc1cncnc1", "inactive"),
    ("COCCCn1c(C(=O)NC2CCCCC2)cc2c(=O)n3cccc(C)c3nc21", "inactive"),
    ("CC(C)c1cc(C(=O)NC2CCCCCC2)c2ccccc2n1", "inactive"),
    ("CC(C)c1cc(C(=O)N(C)C2CCCN(Cc3ccccc3F)C2)n(C)n1 (configuration not stated)", "inactive"),
]

Exercise: Look up the recorded call for `Cc1ccc2cc(/C=N/Nc3ccc(C(=O)O)cc3)c(Cl)nc2c1` in this test.
Key: inactive

Exercise: Could you kindly confirm the outcome this assay logged for O=C1c2ccccc2-c2ccccc2NC1O (configuration not stated) ?
Key: inactive

Exercise: Please indicate how the test categorized `CCc1nnc(NC(=O)c2ccc(S(=O)(=O)NC3CCCCC3)cc2)s1` .
Key: inactive

Exercise: Which outcome was assigned to `C[C@@H]1CN([C@H](C)CO)C(=O)CCCn2nncc2CO[C@@H]1CN(C)S(=O)(=O)c1cccc(C#N)c1` in this test?
Key: inactive

Exercise: Tell me the assay call for `O=C(c1ccc2nc(N3CCOCC3)sc2c1)N1CCN(c2ccc(Cl)cc2)CC1` please.
Key: inactive

Exercise: # outcome recorded in this test, key = CC(C)C(C)NC(=O)COc1nc2ccccc2nc1N(C)C1CCCCC1 (configuration not stated)
Key: inactive

Exercise: Recorded test call requested for `CN(c1ccc2nc3ccccc3c(=O)n2n1)C1CCCCC1`
Key: active

###

Method Notes: EBV LMP1-driven NF-kappaB luciferase reporter inhibitors, primary screen, cell-based, luminescence, single point (AID 504558);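 note: 0% = neutral control wells and 100% = reference inhibitor control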
Settings: LMP1-induced NF-kappaB luciferase reporter cells, at 12.5 µM, active compounds read high
In all, about 350,000 compounds went through this assay and about 2,400 (0.69%) were called active. What follows is part of a selection rich in actives, with near analogues and random picks from the rest.
inhibition values for the compounds below.
Please respond with the number in % and leave the unit unwritten.

Here are 10 compounds together with their reported answers.
# Compound, Unit Spec, Reported Result
data = [
    ("Cc1cccc(Nc2nc(NCCO)nc(N3CCCC3)n2)c1", "%", 7.29),
    ("Cc1cccc(S(=O)(=O)N(C)C[C@H]2OCc3cnnn3CCCC(=O)N([C@@H](C)CO)C[C@H]2C)c1", "%", 2.93),
    ("CCCCCCn1c(=O)n2n(c1=O)C[C@]1(OC(=O)NCc3ccc(OC)c(OC)c3)CN(S(=O)(=O)c3ccc(C)cc3)C[C@]1(O)C2", "%", -11.4),
    ("CCOc1cccc(/C=C/c2ccc3ccccc3n2)c1OC(C)=O", "%", 17.6),
    ("COC(=O)[C@@]1(C)[C@H]2C(=O)N(Cc3ccccc3)C(=O)[C@H]2[C@H]2CN=C(SCC3CC3)N21", "%", -0.447),
    ("COc1ccc(NC(=O)N2CCCC2C(=O)NCc2ccccc2Cl)cc1 (stereo unspecified)", "%", 86.6),
    ("O=C(c1cc2cc(Br)cc(Br)c2oc1=O)N1CCOCC1", "%", 83.6),
    ("Cc1ccc([C@H]2C[C@H](O)[C@@H](n3cc(COC(=O)c4ccccc4)nn3)CN2C(=O)C2CCCCC2)cc1", "%", 7.15),
    ("COc1cccc(CNc2nc(C(F)(F)F)nc3ccccc23)c1", "%", -0.361),
    ("Cc1cc(-n2nc(C)cc2C)n2ncc(-c3ccccc3)c2n1", "%", -21),
]

Exercise: Any idea what its inhibition is? The compound is N#CCCC(C#N)(c1cccnc1)N1CCOCC1 (stereo unspecified)
Key: 2.43

Exercise: Report inhibition for Cc1cccc(NC(=O)C2CCCN2S(=O)(=O)c2ccc(F)cc2)c1C (stereo unspecified) please.
Key: -1.63

Exercise: // query inhibition value for entry `O=C(NCc1ccccc1CN1CCCC1)C1CCN(S(=O)(=O)c2ccc(Cl)cc2)CC1`
Key: -3.5

Exercise: Suppose we examine the compound `COc1cccc(/C=C/c2ccc3ccccc3n2)c1OC(C)=O` ; what inhibition value has been reported?
Key: 56.9

Exercise: Requested read-out: inhibition. Entry: `COc1ccc(C(=O)NC2=NCCS2)c(OC)c1`
Key: 14.4

Exercise: Value lookup for inhibition; key = `N#Cc1ccc(OCC(=O)Nc2nc(-c3ccccn3)cs2)cc1`
Key: 23.6

Exercise: Query (compound): `CC[C@]1(C(=O)OC)[C@H]2C(=O)N(Cc3ccccc3)C(=O)[C@H]2[C@H]2CN=C(SCc3ccc(C#N)cc3)N21` ; field requested: inhibition
Key: 61.8

Exercise: Fill blank: measured inhibition of the compound `CC[C@]1(C(=O)OC)[C@H]2C(=O)N(Cc3ccccc3)C(=O)[C@H]2[C@H]2CN=C(SCc3ccc(Cl)cc3)N21` is ____.
Key: 87.9

Exercise: inhibition lookup needed for `C[C@H]1CN([C@@H](C)CO)C(=O)CCCn2nncc2CO[C@@H]1CN(C)Cc1ccc(Oc2ccccc2)cc1` , thanks.
Key: 8.56

Exercise: I am curious: what inhibition value has been reported for `CCOC(=O)c1cnc(-n2nc(C)cc2C)nc1NNc1cc(C)nc(-c2ccccc2)n1` ?
Key: 73.6

Exercise: Which inhibition is listed for `Nc1cc(=O)c2[nH]cnc2[nH]1` ?
Key: 5.05

Exercise: I'd like to know its inhibition. The compound in question is `O=C(c1cccs1)N1C[C@H](n2cc(C3CC3)nn2)[C@@H](O)C[C@@H]1c1ccccc1`
Key: 5.6

Exercise: Look up inhibition for this compound: `O[C@H]1C[C@H](c2ccc(Cl)cc2)N(Cc2cccs2)C[C@@H]1n1cc(C2CC2)nn1`
Key: 1.65

Exercise: Sample `C[C@@H]1CN([C@H](C)CO)S(=O)(=O)c2ccc(C#C[C@@H](C)O)cc2O[C@@H]1CN(C)Cc1ccc(-c2ccccc2)cc1` — what was its inhibition?
Key: -5.47

Exercise: inhibition lookup needed for `COc1ccc(CNc2nccs2)cc1` , thanks.
Key: 8.57

Exercise: # input compound: `COc1cc(SC)ccc1C(=O)Nc1nc(C)cs1` ; wanted: its inhibition
Key: 77

Exercise: Record request: inhibition value, item `Nc1ccc(S(=O)(=O)NC(=O)c2ccccc2)cc1`
Key: 5.43
